- TARGET OR SYSTEM: T1, Rb^P E492Q (human, UniProt P06400 380-788, E492Q)
- T1 construct: also called variant 18
- T1 sequence (looked up): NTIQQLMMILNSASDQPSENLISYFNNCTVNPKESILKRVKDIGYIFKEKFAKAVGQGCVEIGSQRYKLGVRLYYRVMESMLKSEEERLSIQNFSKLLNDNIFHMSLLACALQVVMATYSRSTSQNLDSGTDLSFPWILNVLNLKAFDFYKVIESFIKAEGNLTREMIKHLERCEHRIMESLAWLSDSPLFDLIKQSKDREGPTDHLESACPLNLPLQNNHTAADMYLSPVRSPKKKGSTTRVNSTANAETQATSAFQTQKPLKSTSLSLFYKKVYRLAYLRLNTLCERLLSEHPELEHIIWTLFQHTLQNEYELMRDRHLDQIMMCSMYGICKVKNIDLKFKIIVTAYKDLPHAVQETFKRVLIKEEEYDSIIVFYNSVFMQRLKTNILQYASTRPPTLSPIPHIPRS
- ASSAY OVERVIEW: fluorescence polarisation; 25 °C; unlabeled Rb^P titrated against 1.5 nM TMR-E2F1^TD or 7.5 nM TMR-E7^LxCxE; 25 mM Tris pH 8.0, 200 mM NaCl, 1 mM DTT, 0.1% Tween-20; 2 min incubation; quadratic fit; apparent Kd for the variants, Kd for WT
- CONDITION: both partners purified
No end group written: not given here. TMR = tetramethyl rhodamine dye
ENDPOINT: Kd (nM)

binder="{TMR}-GEGIRDLFDCDFGDLTPLD (also called E2F^TD; source: synthetic peptide, bought: GenScript) [TMR-E2F1^TD, peptide of the E2F1 transactivation domain]" endpoint=Kd readout_unit=nM readout_value=22
binder="DLYCYEQLN (also: TMR label, position not given here, source: synthetic peptide, bought: GenScript) [TMR-E7^LxCxE, LxCxE peptide of the E7 oncoprotein from HPV]" endpoint=Kd readout_unit=nM readout_value=14
